- experimental protocol: qHTS assay for small molecule agonists of retinoid X receptor alpha signaling (AID 588544)
- measurement context: HEK293T RXRa-UAS-bla, beta-lactamase reporter, 18 h; 530 nm emission
Results filed as inconclusive are left out.
property measured: max response (%)
Record the value in %, omitting the unit from your answer.

Example entries begin here.
CCOP(=O)(NC(C)C)Oc1ccc(SC)c(C)c1 (stereo not given) : 8.26
Nc1c(Cl)c(Cl)c(Cl)c(Cl)c1Cl : -5.48
Cc1cc(O)ccc1Cl : -6.7
CCOCCOC(C)=O : -8.15
O=[N+]([O-])/N=C1\NCCN1Cc1ccc(Cl)nc1 : -17.3

Summary for this molecule, O=[N+]([O-])c1c2ccccc2cc2ccccc12 : max response is 3.63

Summary for this molecule, CC(C)(O)C(=O)Nc1ccc([N+](=O)[O-])c(C(F)(F)F)c1 : max response is 11.6

Summary for this molecule, Nc1ccc([N+](=O)[O-])cc1 : max response is 6.91

Summary for this molecule, Nc1ccc(Cl)cc1N : max response is 13.9

Summary for this molecule, O=C(O)c1cc(Oc2ccc(C(F)(F)F)cc2Cl)ccc1[N+](=O)[O-] : max response is 11.8
